# studyTarget: Delta-type opioid receptor (Homo sapiens, UniProt P41143)
# Sequence (P41143 whole entry): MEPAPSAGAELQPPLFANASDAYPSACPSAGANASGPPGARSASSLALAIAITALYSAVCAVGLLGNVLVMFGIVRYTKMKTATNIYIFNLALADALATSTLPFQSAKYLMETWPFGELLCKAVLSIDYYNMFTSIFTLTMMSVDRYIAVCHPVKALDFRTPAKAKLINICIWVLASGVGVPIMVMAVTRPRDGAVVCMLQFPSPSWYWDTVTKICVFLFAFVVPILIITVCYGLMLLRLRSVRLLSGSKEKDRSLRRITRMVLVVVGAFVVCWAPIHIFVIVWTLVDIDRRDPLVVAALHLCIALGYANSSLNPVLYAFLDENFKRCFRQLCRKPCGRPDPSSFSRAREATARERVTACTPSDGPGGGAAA
# assayProtocol: Antagonist activity assessed as inhibition of BW373U86-stimulated [35S]GTP-gamma-S binding to human delta opioid receptor expressed in CHO cells
pIC50: −log10 of the molar value.

{"chemicalString": "C[C@H]1CN2C[C@H](c3ccccc3)NC[C@H]2C[C@@]1(C)c1cccc(O)c1", "studyTarget": "Delta-type opioid receptor (Homo sapiens, UniProt P41143)", "pIC50": 7.01}
{"chemicalString": "C[C@H]1CN2CCN(CC3CCCCC3)C[C@H]2C[C@@]1(C)c1cccc(O)c1", "studyTarget": "Delta-type opioid receptor (Homo sapiens, UniProt P41143)", "pIC50": 7.07}
{"chemicalString": "C[C@H]1CN2CCN(Cc3ccccc3)C[C@H]2C[C@@]1(C)c1cccc(O)c1", "studyTarget": "Delta-type opioid receptor (Homo sapiens, UniProt P41143)", "pIC50": 6.82}

====

# studyTarget: Mu-type opioid receptor (Homo sapiens)
# Sequence (P35372 whole entry): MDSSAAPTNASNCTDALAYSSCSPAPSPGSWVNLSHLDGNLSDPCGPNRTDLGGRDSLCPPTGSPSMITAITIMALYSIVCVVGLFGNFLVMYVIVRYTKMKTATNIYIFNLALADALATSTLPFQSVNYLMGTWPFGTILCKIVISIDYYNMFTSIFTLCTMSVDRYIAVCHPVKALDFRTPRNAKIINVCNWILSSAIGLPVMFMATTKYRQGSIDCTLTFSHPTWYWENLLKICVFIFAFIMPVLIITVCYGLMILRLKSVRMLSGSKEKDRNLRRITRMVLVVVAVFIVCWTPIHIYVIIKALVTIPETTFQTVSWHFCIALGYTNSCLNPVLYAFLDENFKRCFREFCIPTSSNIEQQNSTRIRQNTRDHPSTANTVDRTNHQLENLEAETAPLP
Binning of Ki into classes: bottom: < 4 nM; middle: ≥ 4 nM and < 20 nM; top: ≥ 20 nM

{"chemicalString": "C[C@H]1CN2CCN(Cc3cccc(OCc4ccccc4)c3)C[C@H]2C[C@@]1(C)c1cccc(O)c1", "studyTarget": "Mu-type opioid receptor (Homo sapiens)", "answerLabel": "middle"}
{"chemicalString": "C[C@H]1CN2CCN(Cc3ccccc3)C[C@H]2C[C@@]1(C)c1cccc(O)c1", "studyTarget": "Mu-type opioid receptor (Homo sapiens)", "answerLabel": "bottom"}
{"chemicalString": "CC(=O)N1C[C@H]2C[C@@](C)(c3cccc(O)c3)[C@@H](C)CN2C[C@@H]1c1ccccc1", "studyTarget": "Mu-type opioid receptor (Homo sapiens)", "answerLabel": "top"}
{"chemicalString": "C[C@H]1CN2CCN(Cc3ccnc4ccccc34)C[C@H]2C[C@@]1(C)c1cccc(O)c1", "studyTarget": "Mu-type opioid receptor (Homo sapiens)", "answerLabel": "top"}
{"chemicalString": "C[C@H]1CN2CCN(Cc3ccc4ccccc4c3)C[C@H]2C[C@@]1(C)c1cccc(O)c1", "studyTarget": "Mu-type opioid receptor (Homo sapiens)", "answerLabel": "top"}
{"chemicalString": "C[C@H]1CN2CCN(Cc3cccs3)C[C@H]2C[C@@]1(C)c1cccc(O)c1", "studyTarget": "Mu-type opioid receptor (Homo sapiens)", "answerLabel": "bottom"}
{"chemicalString": "C[C@H]1CN2C[C@H](C3CCCCC3)NC[C@H]2C[C@@]1(C)c1cccc(O)c1", "studyTarget": "Mu-type opioid receptor (Homo sapiens)", "answerLabel": "bottom"}
{"chemicalString": "C[C@H]1CN2C[C@@H](c3ccccc3)NC[C@H]2C[C@@]1(C)c1cccc(O)c1", "studyTarget": "Mu-type opioid receptor (Homo sapiens)", "answerLabel": "top"}
{"chemicalString": "C[C@H]1CN2C[C@@H](Cc3ccccc3)NC[C@H]2C[C@@]1(C)c1cccc(O)c1", "studyTarget": "Mu-type opioid receptor (Homo sapiens)", "answerLabel": "top"}
{"chemicalString": "Cc1ccc(CN2CCN3C[C@H](C)[C@](C)(c4cccc(O)c4)C[C@@H]3C2)cc1", "studyTarget": "Mu-type opioid receptor (Homo sapiens)", "answerLabel": "middle"}
{"chemicalString": "C[C@H]1CN2CCN(Cc3cccnc3)C[C@H]2C[C@@]1(C)c1cccc(O)c1", "studyTarget": "Mu-type opioid receptor (Homo sapiens)", "answerLabel": "middle"}
{"chemicalString": "C[C@H]1CN2CCN(CCCc3ccccc3)C[C@H]2C[C@@]1(C)c1cccc(O)c1", "studyTarget": "Mu-type opioid receptor (Homo sapiens)", "answerLabel": "top"}
{"chemicalString": "C[C@H]1CN2CCN(Cc3cccc(O)c3)C[C@H]2C[C@@]1(C)c1cccc(O)c1", "studyTarget": "Mu-type opioid receptor (Homo sapiens)", "answerLabel": "middle"}
{"chemicalString": "C[C@H]1CN2CCN(Cc3ccncc3)C[C@H]2C[C@@]1(C)c1cccc(O)c1", "studyTarget": "Mu-type opioid receptor (Homo sapiens)", "answerLabel": "middle"}
{"chemicalString": "COC(=O)c1cccc(CN2CCN3C[C@H](C)[C@](C)(c4cccc(O)c4)C[C@@H]3C2)c1", "studyTarget": "Mu-type opioid receptor (Homo sapiens)", "answerLabel": "middle"}
{"chemicalString": "C[C@H]1CN2C[C@H](c3ccccc3)N(Cc3ccccc3)C[C@H]2C[C@@]1(C)c1cccc(O)c1", "studyTarget": "Mu-type opioid receptor (Homo sapiens)", "answerLabel": "middle"}
{"chemicalString": "C[C@H]1CN2C[C@H](c3ccccc3)NC[C@H]2C[C@@]1(C)c1cccc(C(N)=O)c1", "studyTarget": "Mu-type opioid receptor (Homo sapiens)", "answerLabel": "bottom"}
{"chemicalString": "C[C@H]1CN2CCN(S(=O)(=O)c3ccccc3)C[C@H]2C[C@@]1(C)c1cccc(O)c1", "studyTarget": "Mu-type opioid receptor (Homo sapiens)", "answerLabel": "top"}
{"chemicalString": "Cc1ccccc1CN1CCN2C[C@H](C)[C@](C)(c3cccc(O)c3)C[C@@H]2C1", "studyTarget": "Mu-type opioid receptor (Homo sapiens)", "answerLabel": "bottom"}
{"chemicalString": "C[C@H]1CN2CCN(C(=O)Cc3ccccc3)C[C@H]2C[C@@]1(C)c1cccc(O)c1", "studyTarget": "Mu-type opioid receptor (Homo sapiens)", "answerLabel": "middle"}
{"chemicalString": "C[C@H]1CN2CCN(Cc3ccco3)C[C@H]2C[C@@]1(C)c1cccc(O)c1", "studyTarget": "Mu-type opioid receptor (Homo sapiens)", "answerLabel": "middle"}
{"chemicalString": "C[C@H]1CN2CCN(Cc3ccc(O)cc3)C[C@H]2C[C@@]1(C)c1cccc(O)c1", "studyTarget": "Mu-type opioid receptor (Homo sapiens)", "answerLabel": "middle"}
{"chemicalString": "C[C@H]1CN2CCN(Cc3ccccc3O)C[C@H]2C[C@@]1(C)c1cccc(O)c1", "studyTarget": "Mu-type opioid receptor (Homo sapiens)", "answerLabel": "bottom"}
{"chemicalString": "C[C@H]1CN2CCN(Cc3ccc(N(C)C)cc3)C[C@H]2C[C@@]1(C)c1cccc(O)c1", "studyTarget": "Mu-type opioid receptor (Homo sapiens)", "answerLabel": "top"}
{"chemicalString": "C[C@H]1CN2CCN(Cc3cccc(Cl)c3)C[C@H]2C[C@@]1(C)c1cccc(O)c1", "studyTarget": "Mu-type opioid receptor (Homo sapiens)", "answerLabel": "bottom"}
{"chemicalString": "C[C@H]1CN2CCN(C(=O)CCc3ccccc3)C[C@H]2C[C@@]1(C)c1cccc(O)c1", "studyTarget": "Mu-type opioid receptor (Homo sapiens)", "answerLabel": "top"}
{"chemicalString": "C[C@H]1CN2C[C@H](c3ccccc3)N(Cc3ccccc3)C[C@H]2C[C@@]1(C)c1cccc(C(N)=O)c1", "studyTarget": "Mu-type opioid receptor (Homo sapiens)", "answerLabel": "middle"}
{"chemicalString": "C[C@H]1CN2CCN(C(=O)Nc3ccccc3)C[C@H]2C[C@@]1(C)c1cccc(O)c1", "studyTarget": "Mu-type opioid receptor (Homo sapiens)", "answerLabel": "top"}
{"chemicalString": "C[C@H]1CN2CCCN(Cc3ccccc3)C[C@H]2C[C@@]1(C)c1cccc(O)c1", "studyTarget": "Mu-type opioid receptor (Homo sapiens)", "answerLabel": "top"}
{"chemicalString": "Cc1cccc(CN2CCN3C[C@H](C)[C@](C)(c4cccc(O)c4)C[C@@H]3C2)c1", "studyTarget": "Mu-type opioid receptor (Homo sapiens)", "answerLabel": "bottom"}
{"chemicalString": "C[C@H]1CN2CCN(Cc3ccccc3Cl)C[C@H]2C[C@@]1(C)c1cccc(O)c1", "studyTarget": "Mu-type opioid receptor (Homo sapiens)", "answerLabel": "bottom"}
{"chemicalString": "C[C@H]1CN2CCN(CC3CCCCC3)C[C@H]2C[C@@]1(C)c1cccc(O)c1", "studyTarget": "Mu-type opioid receptor (Homo sapiens)", "answerLabel": "bottom"}
